The reported measurements were obtained from patent US20240076370A1.

system_tested: T1, human G-protein coupled receptor family C group 5 member D (GPRC5D) (human, UniProt Q9NZD1 1-345)
T1 construct: Overexpressed on 3T3 cells in the FACS assays; also called human GPRC5D; 3T3-GPRC5D
assay_name: FACS, scFv phage clones on 3T3 cells overexpressing GPRC5D
readout_type: binding result

INSERT INTO assay_data (binder, recorded_value) VALUES
  ('ET150-172 scFv (scFv, also called ET150-22 scFv) scFv: QSALTQPPSASGSPGQSVTISCTGTSSDVGGYNYVSWYQQHPGKAPKLMIYEVSKRPSGVPDRFSGSKSGNTASLTVSGLQAEDEADYYCSSYAGSNTLVFGGGTKLTVLGSRGGGGSGGGGSGGGGSLEMAQMQLVQSGAEVKKPGASVKVSCKASGYTFTSYYMHWVRQAPGQGLEWMGIINPSGGSSSYAQKFQGRVTMTRDTSTSTVYMELSSLRSEDTAVYYCARAGMGMDTWGQGTLVTVSS', 'binds'),
  ('ET150-026 scFv (scFv, also called ET150-176 scFv) scFv: AELSYELTQPPSASGTPGQRVSISCSGSSSNIGSNTVNWYQQFPGTAPKLLIHSNNQRPSGVPDRFSGSKSGTSASLAISGPQSEDEADYYCAAWDDSVNGYVFGTGTKVTVLGSRGGGGSGGGGSGGGGSLEMAQLQLQESGGGSVQPGGSLRLSCAASGFTFSNYAMSWVRQAPGKGLEWVSAITNSGRSTYYADSVKGRFTISRDNSKNTLSLQMSSLRAEDTAVYYCARVTHRRYGSTFDSRGQGTLVTVSS', 'binds'),
  ('ET150-166 scFv (scFv, also called ET150-16 scFv) scFv: NFMLTQPHSVSESPGKTVSISCTRTSGAIAGAYVQWFQQRPGSAPTTVIYDDNKRPSGVPDRFSGSIDKSSNSASLTISGLKTEDEADYYCQSYDYDSSNVLFGGGTKLTVLGSRGGGGSGGGGSGGGGSLEMAEVQLVESGGGLVQPGGSLRLSCAASGFTFSNYAMSWVRQAPGKGLEWVSAISGSGNTYYADSVKGRFTISRDNSKNTLYLQMNSLRAEDTAVYYCARGSVRYTDIWGQGTLVTVSS', 'binds');
